These measurements were taken from ChEMBL document CHEMBL4304834.

- test-target: 5-hydroxytryptamine receptor 7 (Homo sapiens)
- Sequence (P34969 whole entry): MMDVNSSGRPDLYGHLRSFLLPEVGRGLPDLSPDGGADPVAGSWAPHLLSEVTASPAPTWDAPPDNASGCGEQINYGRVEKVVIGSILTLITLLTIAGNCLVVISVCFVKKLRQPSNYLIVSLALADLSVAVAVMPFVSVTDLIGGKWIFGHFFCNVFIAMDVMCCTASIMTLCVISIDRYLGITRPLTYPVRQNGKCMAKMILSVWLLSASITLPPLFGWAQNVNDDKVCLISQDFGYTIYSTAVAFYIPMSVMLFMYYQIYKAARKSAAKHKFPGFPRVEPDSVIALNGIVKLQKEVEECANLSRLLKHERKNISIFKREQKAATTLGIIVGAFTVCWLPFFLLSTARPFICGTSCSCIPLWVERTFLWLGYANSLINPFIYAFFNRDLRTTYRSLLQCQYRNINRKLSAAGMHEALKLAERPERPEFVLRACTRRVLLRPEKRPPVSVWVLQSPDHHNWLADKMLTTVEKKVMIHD
- method-description: Displacement of [3H]-LSD from human recombinant 5-HT7 receptor expressed in stable HEK cells after 90 mins by microbeta scintillation counting method
- Type: cell-based
- conditions-used: read-out: pKi (converted)
experimental-readout: Ki (nM)
Numbers only, in nM.

{"columns": ["compound", "Ki (nM)"],
 "data": [
  ["COc1ccc2c(c1)[C@@H]1CCN[C@]1(C)CO2 (racemic)", 200],
  ["C[C@@]12COc3c(-c4ccccc4)cccc3[C@@H]1CCN2 (racemic)", 23.4],
  ["CN1CC[C@H]2c3cccc(-c4ccccc4)c3OC[C@]21C (racemic)", 20],
  ["C[C@@]12COc3ccc(-c4ccccc4)cc3[C@@H]1CCN2 (racemic)", 1000]
]}

// switching to the query compound
Query CC[C@H]1c2ccc3ccccc3c2OC[C@@]1(C)N (racemic) yields Ki of 1000

---

- test-target: Beta-2 adrenergic receptor (Homo sapiens)
- Sequence (P07550 whole entry): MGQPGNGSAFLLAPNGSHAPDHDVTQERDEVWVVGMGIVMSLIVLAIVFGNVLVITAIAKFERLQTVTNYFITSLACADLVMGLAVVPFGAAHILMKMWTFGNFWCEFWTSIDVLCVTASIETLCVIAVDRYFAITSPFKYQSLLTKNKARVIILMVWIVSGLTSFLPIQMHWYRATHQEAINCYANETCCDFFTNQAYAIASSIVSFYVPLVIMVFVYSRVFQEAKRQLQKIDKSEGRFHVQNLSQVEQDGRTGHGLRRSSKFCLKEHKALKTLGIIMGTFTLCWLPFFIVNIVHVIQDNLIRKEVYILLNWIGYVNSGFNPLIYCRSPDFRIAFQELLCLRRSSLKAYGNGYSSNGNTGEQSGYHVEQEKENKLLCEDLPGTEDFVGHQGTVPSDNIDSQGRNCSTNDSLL
- method-description: Displacement of [3H]-CGP12177 from human recombinant adrenergic Beta2 receptor expressed in Flp-In HEK cells after 90 mins by microbeta scintillation counting method
Give Ki for every item shown.
One number for each entry, in µM.

{"columns": ["compound", "test-target", "Ki (µM)"],
 "data": [
  ["CC[C@H]1c2cc(OC)ccc2CC[C@@]1(C)N (racemic)", "Beta-2 adrenergic receptor (Homo sapiens)", 5.01]
]}

// switching to the query compound
Query COc1cc(OC)c2c(c1)OC[C@@]1(C)NCC[C@@H]21 (racemic) yields Ki of 0.575

---

- test-target: Kappa-type opioid receptor (Homo sapiens, UniProt P41145)
- Sequence (P41145 whole entry): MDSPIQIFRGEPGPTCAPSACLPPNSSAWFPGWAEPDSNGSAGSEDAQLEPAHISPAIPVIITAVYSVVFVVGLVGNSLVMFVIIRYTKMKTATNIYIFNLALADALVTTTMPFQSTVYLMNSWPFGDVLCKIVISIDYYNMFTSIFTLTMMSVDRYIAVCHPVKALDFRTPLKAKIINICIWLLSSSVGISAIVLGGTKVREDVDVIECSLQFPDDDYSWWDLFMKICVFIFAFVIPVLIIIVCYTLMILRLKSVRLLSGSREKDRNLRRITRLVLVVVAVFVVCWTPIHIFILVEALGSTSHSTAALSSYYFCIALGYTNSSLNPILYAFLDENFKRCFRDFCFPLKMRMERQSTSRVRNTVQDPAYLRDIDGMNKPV
- method-description: Displacement of [3H]-U69593 from human recombinant KOR receptor expressed in stable HEK cells after 90 mins by microbeta scintillation counting method
pKi: −log10 of the molar value.
Give pKi for every item shown.

{"columns": ["compound", "experimental-readout", "result"],
 "data": [
  ["CC[C@H]1c2cc(C)ccc2OC[C@@]1(C)N (racemic)", "pKi", "< 5.00"],
  ["CC[C@H]1c2ccccc2N(c2ccccc2)C[C@@]1(C)N (racemic)", "pKi", "< 5.00"],
  ["CC[C@H]1c2cc(OC)ccc2CC[C@@]1(C)N (racemic)", "pKi", 6.50],
  ["C[C@@]12CN(c3ccccc3)c3ccccc3[C@@H]1CCN2 (racemic)", "pKi", "< 5.00"]
]}

// switching to the query compound
Measured on Kappa-type opioid receptor (Homo sapiens, UniProt P41145), COc1cc(OC)c2c(c1)OC[C@@]1(C)NCC[C@@H]21 (racemic) has a documented pKi of < 5.00

---

Give pKi for every item shown.
- test-target: Histamine H1 receptor (Homo sapiens, UniProt P35367)
- Sequence (P35367 whole entry): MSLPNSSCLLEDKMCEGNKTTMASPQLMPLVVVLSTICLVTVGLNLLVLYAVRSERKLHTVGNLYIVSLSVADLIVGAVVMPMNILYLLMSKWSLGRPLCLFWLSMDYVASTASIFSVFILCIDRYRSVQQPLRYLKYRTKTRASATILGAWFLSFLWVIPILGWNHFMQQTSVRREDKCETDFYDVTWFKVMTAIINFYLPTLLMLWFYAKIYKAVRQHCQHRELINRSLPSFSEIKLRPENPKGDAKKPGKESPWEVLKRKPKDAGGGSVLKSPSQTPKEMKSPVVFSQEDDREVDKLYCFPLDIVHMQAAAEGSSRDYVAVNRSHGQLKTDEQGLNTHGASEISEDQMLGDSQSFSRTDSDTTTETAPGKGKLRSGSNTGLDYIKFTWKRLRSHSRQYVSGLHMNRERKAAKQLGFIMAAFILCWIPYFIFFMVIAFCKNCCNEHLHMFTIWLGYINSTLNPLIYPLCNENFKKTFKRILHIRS
- method-description: Displacement of [3H]-Pyrilamine from human recombinant histamine H1 receptor expressed in stable HEK cells after 90 mins by microbeta scintillation counting method
pKi: −log10 of the molar value.

Some compounds with recorded pKi:
{"columns": ["compound", "result"],
 "data": [
  ["CC[C@H]1c2cc(OC)ccc2CC[C@@]1(C)N (racemic)", 5.50],
  ["CC[C@H]1c2ccccc2N(c2ccccc2)C[C@@]1(C)N (racemic)", "< 5.00"],
  ["C[C@@]12CN(c3ccccc3)c3ccccc3[C@@H]1CCN2 (racemic)", "< 5.00"],
  ["CC[C@H]1c2cc(C)ccc2OC[C@@]1(C)N (racemic)", "< 5.00"]
]}

// switching to the query compound
Query COc1cc(OC)c2c(c1)OC[C@@]1(C)NCC[C@@H]21 (racemic) yields pKi of < 5.00
